All values here come from PubChem BioAssay (NCATS).

measurement protocol: Quantitative High-Throughput drug screen in 47 multiple myeloma cell lines against the NCATS MIPE library collection: AMO1_DSMZ cell viability assay (AID 1918927; note: nearly all actives have a fitted effect of over 30% in size)
study conditions: AMO1 myeloma cells viability, CellTiter-Glo ATP luminescence, 48 h; series mostly up to 45.8 µM
Records with an inconclusive call do not appear. Active and inactive are the calls of the source. Calls come from the whole dose curve; as a rule, active = well fitted cell-killing curve with a large enough effect; inconclusive = small, poorly fitted or top-dose-only effect, or effect the other way; inactive = no such curve, though single readings can be large or run the other way.
Outcome codes: active, inactive

[[record]]
molecule = "COc1cc(C=CC(=O)O)ccc1O"
label_value = "inactive"

[[record]]
molecule = "COc1cc(CNC(=O)CCCCC=CC(C)C)ccc1O"
label_value = "inactive"

[[record]]
molecule = "C=CCc1cccc(C=NNC(=O)CN2CCN(Cc3ccccc3)CC2)c1O"
label_value = "active"

[[record]]
molecule = "Cc1cccc(Nc2nc(N[C@@H]3CCCC[C@H]3N)ncc2C(N)=O)c1"
label_value = "active"

[[record]]
molecule = "Cc1cnc(CNC(=O)c2c(=O)c3ccc(N4CCCN(C)CC4)nc3n3c2sc2ccccc23)cn1"
label_value = "active"

[[record]]
molecule = "COc1ccc(Cn2ccc3ccc(C(=O)NO)cc32)cc1"
label_value = "active"

[[record]]
molecule = "CCC[C@@H](NC(=O)[C@@H]1[C@H]2CCC[C@@H]2CN1C(=O)[C@@H](NC(=O)[C@@H](NC(=O)c1cnccn1)C1CCCCC1)C(C)(C)C)C(=O)C(=O)NC1CC1"
label_value = "active"

[[record]]
molecule = "O=C(NC[C@H](O)CO)c1ccncc1Nc1ccc(I)cc1F"
label_value = "active"

[[record]]
molecule = "CC(C)(O)CC(=O)NCCn1ccc2ncnc(Nc3ccc(Oc4cccc(C(F)(F)F)c4)c(Cl)c3)c21"
label_value = "active"

[[record]]
molecule = "O=C(c1ccc(C(=O)N2CCC(N3CCCC3)CC2)c(Nc2ccccc2)c1)N1CCC(N2CCCC2)CC1"
label_value = "inactive"

[[record]]
molecule = "N[C@@H](CC(=O)N1CCn2c(nnc2C(F)(F)F)C1)Cc1cc(F)c(F)cc1F"
label_value = "inactive"

[[record]]
molecule = "Cc1c(-c2cccc3c(CCCOc4cccc5ccccc45)c(C(=O)O)n(Cc4cccnc4)c23)c(COc2ccc(N3CCN([S+](=O)([O-])N(C)C)CC3)cc2)nn1C"
label_value = "inactive"

[[record]]
molecule = "O=S(=O)(NCCNCC=Cc1ccc(Br)cc1)c1cccc2cnccc12"
label_value = "active"

[[record]]
molecule = "N#Cc1ccc(Oc2ccc3c(c2)COB3O)cc1"
label_value = "active"

[[record]]
molecule = "CCCC1OC2C[C@@H]3[C@H]4CCC5=CC(=O)C=C[C@]5(C)[C@H]4C(O)C[C@]3(C)[C@]2(C(=O)CO)O1 (some centres undefined)"
label_value = "inactive"

[[record]]
molecule = "CS(=O)(=O)c1ccc(C2=C(c3ccccc3)C(=O)OC2)cc1"
label_value = "inactive"

[[record]]
molecule = "Fc1ccc(C(c2ccc(F)cc2)N2CCN(CC=Cc3ccccc3)CC2)cc1"
label_value = "inactive"

[[record]]
molecule = "Cc1ccc(NC(=O)c2ccc(CN3CCN(C)CC3)cc2)cc1Nc1nc(-c2cccnc2)cs1"
label_value = "active"

[[record]]
molecule = "O=C(Nc1ccc(OC(F)(F)F)cc1)c1sccc1NCc1ccnc2ccccc12"
label_value = "active"


---

measurement protocol: qHTS profiling of the MIPE4 collection as inhibitors of Plasmodium falciparum (DD2) proliferation (Rep 2) (AID 743346)
study conditions: P. falciparum Dd2 in erythrocytes, SYBR Green DNA, 72 h; at 28.5 µM (top of the series) unless noted
Overview of recorded parasite growth, % of control (lower = inhibition) for various molecules
assay readout: parasite growth, % of control (lower = inhibition) (%)

[[record]]
molecule = "CC1(C)OC2CC3C4CC(F)C5=CC(=O)C=CC5(C)C4C(O)CC3(C)[C@]2(C(=O)CO)O1 (stereo partly drawn)"
number = 7.06

[[record]]
molecule = "COc1c(C)cnc(Cn2cnc3c(Cl)nc(N)nc32)c1C"
number = 31.8

[[record]]
molecule = "CC1CNc2c(cccc2S(=O)(=O)N[C@@H](CCCN=C(N)N)C(=O)N2CC[C@@H](C)C[C@@H]2C(=O)O)C1 (stereo partly drawn)"
number = 101


---

measurement protocol: Quantitative High-Throughput drug screen in 47 multiple myeloma cell lines against the NCATS MIPE library collection: PE2_PLB cell viability assay (AID 1919869); note: nearly all actives have a fitted effect of over 35% in size
study conditions: PE2_PLB myeloma cells viability, ATP luminescence, 48 h; series mostly up to 45.8 µM
Records with an inconclusive call do not appear. Active and inactive are the calls of the source. The call rests on the fitted dose curve; in most records, active means well fitted cell-killing curve with a large enough effect; inconclusive means small, poorly fitted or top-dose-only effect, or effect the other way; inactive means no such curve, though single readings can be large or run the other way.
Outcome codes: YES for active, NO for inactive

[[record]]
compound = "CC(C)CNc1ccnc(NCc2csc(-c3ccccc3)n2)n1"
label_value = "YES"

[[record]]
compound = "O=C(O)c1ccc(O)c2ncc(N3CCOCC3)cc12"
label_value = "YES"

[[record]]
compound = "CCc1cc(-c2n[nH]c(C)c2-c2ccc3c(c2)OCCO3)c(O)cc1O"
label_value = "YES"

[[record]]
compound = "NC1(C(=O)N[C@@H](CCO)c2ccc(Cl)cc2)CCN(c2ncnc3[nH]ccc23)CC1"
label_value = "YES"

[[record]]
compound = "CC1=C(C(=O)Nc2cc3cn[nH]c3cc2F)C(c2ccc(C(F)(F)F)cc2)CC(=O)N1 (centres undefined)"
label_value = "NO"

[[record]]
compound = "N#CC(c1ccnc(NCCc2cccnc2)n1)c1nc2ccccc2s1 (centres undefined)"
label_value = "YES"

[[record]]
compound = "CN(C)CC[C@H](CSc1ccccc1)Nc1ccc(S(=O)(=O)NC(=O)c2ccc(N3CCN(Cc4ccccc4-c4ccc(Cl)cc4)CC3)cc2)cc1[N+](=O)[O-]"
label_value = "YES"

[[record]]
compound = "C[C@@H]1C[C@H]2[C@@H]3CCC4=CC(=O)C=C[C@]4(C)[C@@]3(F)[C@@H](O)C[C@]2(C)[C@@]1(O)C(=O)CO"
label_value = "NO"

[[record]]
compound = "CCc1cccc(CC)c1NC(=O)N1Cc2[nH]nc(NC(=O)c3ccc(N4CCN(C)CC4)cc3)c2C1"
label_value = "YES"


---

measurement protocol: Quantitative High-Throughput drug screen in 47 multiple myeloma cell lines against the NCATS MIPE library collection: RPMI8226_ATCC cell viability assay (AID 1919871); note: nearly all actives have a fitted effect of over 30% in size
study conditions: RPMI8226 myeloma viability, CellTiter-Glo ATP luminescence, 48 h; series mostly up to 45.8 µM
Results filed as inconclusive are left out. Active and inactive are the calls of the source. The call rests on the fitted dose curve; in most records, active means well fitted cell-killing curve with a large enough effect; inconclusive means small, poorly fitted or top-dose-only effect, or effect the other way; inactive means no such curve, though single readings can be large or run the other way.
Outcome codes: True (active), False (inactive)

[[record]]
compound = "Cc1nn(Cc2ccccc2Cl)c(C)c1CN(C)CC(O)COc1ccc(Cl)cc1 (stereo not given)"
label_value = "True"

[[record]]
compound = "CC1(C)C(N(O)C(=O)Nc2ccc(Cl)cc2)N(c2ccc(Cl)cc2)C(=O)N1CC(=O)NN=CC=Cc1ccc([N+](=O)[O-])o1 (stereo not given)"
label_value = "True"

[[record]]
compound = "CCC(c1ccc(O)cc1)C(CC)c1ccc(O)cc1 (stereo not given)"
label_value = "False"

[[record]]
compound = "Fc1ccc(CNc2ncnc3ccc(F)cc23)cc1"
label_value = "True"

[[record]]
compound = "NCc1c[nH]c(=S)n1[C@H]1CCc2c(F)cc(F)cc2C1"
label_value = "True"


---

measurement protocol: Quantitative High-Throughput drug screen in 47 multiple myeloma cell lines against the NCATS MIPE library collection: H1112_PLB cell viability assay (AID 1918967; note: nearly all actives have a fitted effect of over 30% in size)
study conditions: H1112 myeloma cells viability, ATP luminescence, 48 h; series mostly up to 45.8 µM
Inconclusive results are not listed. Calls of active or inactive are those of the source. Calls come from the whole dose curve; as a rule, active = well fitted cell-killing curve with a large enough effect; inconclusive = small, poorly fitted or top-dose-only effect, or effect the other way; inactive = no such curve, though single readings can be large or run the other way.
Outcome codes: true (active), false (inactive)

[[record]]
compound = "COc1cc2c(cc1OC)[C@@H]1Cc3ccc(OC)c(OC)c3CN1CC2"
label_value = "false"

[[record]]
compound = "CC(=O)OCC(=O)[C@@]12OC(C)(C)O[C@H]1C[C@H]1[C@@H]3C[C@H](F)C4=CC(=O)C=C[C@]4(C)[C@@]3(F)[C@@H](O)C[C@@]12C"
label_value = "false"

[[record]]
compound = "C[C@]12CCC3=C4CCC(=O)C=C4CC[C@@H]3[C@H]1CC[C@@]2(O)CC#N"
label_value = "false"

[[record]]
compound = "O=c1[nH]c(=O)n([C@H]2C[C@@H](O)[C@@H](CO)O2)cc1C(F)(F)F"
label_value = "true"

[[record]]
compound = "Cn1c(=O)c(Oc2ccc(F)cc2F)cc2cnc(NC3CCOCC3)nc21"
label_value = "false"

[[record]]
compound = "CC1(C)C(N(O)C(=O)Nc2ccc(Cl)cc2)N(c2ccc(Cl)cc2)C(=O)N1CC(=O)NN=CC=Cc1ccc([N+](=O)[O-])o1 (stereo not drawn)"
label_value = "true"

[[record]]
compound = "NC(=O)c1ncn([C@@H]2O[C@H](CO)[C@@H](O)[C@@H]2O)n1"
label_value = "false"

[[record]]
compound = "O=C(NC[C@H](O)CO)c1ccncc1Nc1ccc(I)cc1F"
label_value = "true"

[[record]]
compound = "C=CC[N+]1([C@H]2C[C@H]3[C@@H]4CC[C@H]5C[C@H](O)[C@@H](N6CCOCC6)C[C@]5(C)[C@@H]4CC[C@]3(C)[C@H]2OC(C)=O)CCCC1"
label_value = "false"

[[record]]
compound = "CO[C@H]1/C=C\\O[C@@]2(C)Oc3c(C)c(O)c4c(O)c(c5c(nc6cc(C)ccn65)c4c3C2=O)NC(=O)C(C)=CC=C[C@H](C)[C@H](O)[C@@H](C)[C@@H](O)[C@@H](C)[C@H](OC(C)=O)[C@H]1C"
label_value = "false"

[[record]]
compound = "C#CCN(C)CC1=Cc2ccccc2Oc2ccccc21"
label_value = "false"

[[record]]
compound = "O=C(Nc1ncc(SCCN2CCCC2)s1)[C@]1(c2ccc(S(=O)(=O)C3CC3)cc2)C[C@@H]1C1CCCCC1"
label_value = "true"

[[record]]
compound = "CCCCCCCCCCCCCCCC(=O)O[C@H]1[C@@H](O)[C@@H](O)[C@@H]([C@H](NC(=O)[C@@H]2C[C@@H](CCC)CN2C)[C@H](C)Cl)O[C@@H]1SC"
label_value = "true"

[[record]]
compound = "CN1CCC(COc2cnc(-c3cccc(Cn4nc(-c5cccc(C#N)c5)ccc4=O)c3)nc2)CC1"
label_value = "true"

[[record]]
compound = "CCC[C@H](N[C@@H](C)C(=O)N1[C@@H]2CCCC[C@H]2C[C@H]1C(=O)O)C(=O)OCC"
label_value = "false"

[[record]]
compound = "Fc1ccc(C(c2ccc(F)cc2)N2CCN(CC=Cc3ccccc3)CC2)cc1"
label_value = "false"

[[record]]
compound = "CCOC(=O)c1c(CSc2ccccc2)n(C)c2cc(Br)c(O)c(CN(C)C)c12"
label_value = "true"

[[record]]
compound = "CN1CCN2c3ncccc3Cc3ccccc3C2C1 (stereo not drawn)"
label_value = "false"

[[record]]
compound = "COC(=O)Nc1ccc(-c2nc(N3CCOCC3)c3cnn(C4CCN(C(=O)OC)CC4)c3n2)cc1"
label_value = "true"

[[record]]
compound = "Cn1cc(-c2ccc3nnc(Sc4ccc5ncccc5c4)n3n2)cn1"
label_value = "false"

[[record]]
compound = "O=C(O)c1nc(=O)[nH]c(=O)[nH]1"
label_value = "false"

[[record]]
compound = "C[C@@H]1[C@H](C)CC[C@]2(C(=O)O)CC[C@]3(C)C(=CC[C@@H]4[C@@]5(C)CC[C@H](O)C(C)(C)[C@H]5CC[C@]43C)[C@@H]12"
label_value = "false"

[[record]]
compound = "C[C@@H]1O[C@@H](O[C@H]2CC[C@@]3(C)[C@H](CC[C@@H]4[C@H]3C[C@@H](O)[C@]3(C)[C@@H](C5=CC(=O)OC5)CC[C@]43O)C2)C[C@H](O)[C@@H]1O[C@H]1C[C@H](O)[C@H](O[C@H]2C[C@H](O)[C@@H](O)[C@@H](C)O2)[C@H](C)O1 (stereo in doubt)"
label_value = "true"

[[record]]
compound = "COc1cccc(OC)c1-c1cc(C(=O)NC2(C(=O)O)C3CC4CC(C3)CC2C4)nn1-c1ccnc2cc(Cl)ccc12 (stereo not drawn)"
label_value = "false"

[[record]]
compound = "COc1ccc(CCN(C)CCCOc2ccc(S(=O)(=O)c3[nH]c4ccccc4c3C(C)C)cc2)cc1OC"
label_value = "true"

[[record]]
compound = "COc1cc2ncnc(Nc3cc(Br)c(O)c(Br)c3)c2cc1OC"
label_value = "true"

[[record]]
compound = "Cc1c(C(=O)Nc2ccc(N3C[C@@H](C)O[C@@H](C)C3)nc2)cccc1-c1ccc(OC(F)(F)F)cc1"
label_value = "true"

[[record]]
compound = "CCNC(=O)Nc1ccc(Oc2ncnc(N)c2C=NOC)cc1Cl"
label_value = "false"

[[record]]
compound = "COc1cc2nccc(Oc3ccc(NC(=O)Nc4ccc(F)cc4F)c(F)c3)c2cc1OC"
label_value = "false"

[[record]]
compound = "CN1C(=O)C(Cc2c[nH]c3ccccc23)NC1=S (stereo not drawn)"
label_value = "false"

[[record]]
compound = "NC[C@H]1O[C@H](O[C@@H]2[C@@H](O)[C@@H](O[C@H]3O[C@H](CO)[C@@H](O)[C@H](N)[C@@H]3O)[C@H](N)C[C@@H]2N)[C@H](O)[C@@H](O)[C@H]1O"
label_value = "false"

[[record]]
compound = "CC(NCCc1ccc(O)cc1)C(O)c1ccc(O)cc1 (stereo not drawn)"
label_value = "false"

[[record]]
compound = "O=C(NCCCCN1CCOCC1)c1cc2ccccc2o1"
label_value = "false"

